Molecular target: CDK12 (Homo sapiens, UniProt Q9NYV4)
Sequence (Q9NYV4 whole entry): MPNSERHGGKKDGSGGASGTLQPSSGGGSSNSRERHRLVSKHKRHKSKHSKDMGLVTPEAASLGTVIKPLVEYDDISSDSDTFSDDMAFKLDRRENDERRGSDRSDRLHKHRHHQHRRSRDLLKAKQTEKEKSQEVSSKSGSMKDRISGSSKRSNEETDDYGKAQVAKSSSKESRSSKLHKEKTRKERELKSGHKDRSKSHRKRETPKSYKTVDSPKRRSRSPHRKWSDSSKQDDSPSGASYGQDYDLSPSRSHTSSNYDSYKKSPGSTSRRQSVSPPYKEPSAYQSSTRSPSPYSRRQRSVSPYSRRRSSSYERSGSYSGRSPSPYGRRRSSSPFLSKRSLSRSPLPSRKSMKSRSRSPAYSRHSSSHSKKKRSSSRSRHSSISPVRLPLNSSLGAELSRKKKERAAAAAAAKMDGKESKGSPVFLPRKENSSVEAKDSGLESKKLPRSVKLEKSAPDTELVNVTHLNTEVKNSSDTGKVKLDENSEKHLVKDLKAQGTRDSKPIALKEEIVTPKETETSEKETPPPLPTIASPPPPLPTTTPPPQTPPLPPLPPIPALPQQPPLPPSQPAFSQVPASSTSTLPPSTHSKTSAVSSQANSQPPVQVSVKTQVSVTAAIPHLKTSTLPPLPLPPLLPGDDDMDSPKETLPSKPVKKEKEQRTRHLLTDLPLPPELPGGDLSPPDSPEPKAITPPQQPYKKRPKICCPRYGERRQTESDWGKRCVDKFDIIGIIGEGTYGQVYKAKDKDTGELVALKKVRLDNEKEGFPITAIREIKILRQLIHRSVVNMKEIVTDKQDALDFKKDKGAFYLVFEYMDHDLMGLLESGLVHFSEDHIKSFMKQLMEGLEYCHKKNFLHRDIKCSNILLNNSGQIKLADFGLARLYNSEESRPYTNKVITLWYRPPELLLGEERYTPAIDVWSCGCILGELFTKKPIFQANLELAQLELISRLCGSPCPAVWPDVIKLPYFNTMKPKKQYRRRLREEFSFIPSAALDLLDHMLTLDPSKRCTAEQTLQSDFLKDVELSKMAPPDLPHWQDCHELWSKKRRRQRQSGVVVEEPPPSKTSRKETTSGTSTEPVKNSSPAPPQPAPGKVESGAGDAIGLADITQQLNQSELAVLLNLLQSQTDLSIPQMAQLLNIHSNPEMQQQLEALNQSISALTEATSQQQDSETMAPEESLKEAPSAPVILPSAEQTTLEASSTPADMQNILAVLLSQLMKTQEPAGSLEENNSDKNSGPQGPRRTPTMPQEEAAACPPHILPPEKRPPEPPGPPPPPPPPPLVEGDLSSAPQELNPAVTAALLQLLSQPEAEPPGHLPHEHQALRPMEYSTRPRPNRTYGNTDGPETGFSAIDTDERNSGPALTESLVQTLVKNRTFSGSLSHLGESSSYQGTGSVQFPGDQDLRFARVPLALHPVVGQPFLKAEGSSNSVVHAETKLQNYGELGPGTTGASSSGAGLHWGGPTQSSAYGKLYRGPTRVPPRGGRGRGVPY
Sequence (O75909 whole entry partner): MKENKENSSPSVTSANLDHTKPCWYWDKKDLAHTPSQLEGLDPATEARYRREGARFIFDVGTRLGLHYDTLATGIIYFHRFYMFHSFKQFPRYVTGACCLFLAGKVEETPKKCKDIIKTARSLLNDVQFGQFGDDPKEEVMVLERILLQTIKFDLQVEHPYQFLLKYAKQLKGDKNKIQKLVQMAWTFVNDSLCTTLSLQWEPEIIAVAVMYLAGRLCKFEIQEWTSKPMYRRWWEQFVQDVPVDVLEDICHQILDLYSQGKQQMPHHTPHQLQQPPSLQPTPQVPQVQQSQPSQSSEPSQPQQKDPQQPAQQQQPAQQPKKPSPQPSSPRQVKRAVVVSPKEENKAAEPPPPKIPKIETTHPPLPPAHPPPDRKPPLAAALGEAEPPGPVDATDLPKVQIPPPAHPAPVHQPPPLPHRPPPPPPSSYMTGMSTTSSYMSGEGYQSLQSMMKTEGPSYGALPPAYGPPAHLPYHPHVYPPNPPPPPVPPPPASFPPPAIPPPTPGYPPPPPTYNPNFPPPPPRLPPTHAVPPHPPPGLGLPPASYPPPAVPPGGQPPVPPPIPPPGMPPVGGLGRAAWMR
Assay: Inhibition of cyclin-dependent kinase 12 (% enzyme activity at 1 uM and IC50)
Assay type: biochemical
Conditions: 1 uM compound
Overview of reported remaining activity at 1 µM across a group of compounds:

[
  {
    "structure-smiles": "Cc1noc(C)c1-c1cnc2c(NCc3nc4cc(Cl)c(Cl)cc4[nH]3)cc(N3CCN(C)CC3)nn12",
    "test-system": "CDK12 (Homo sapiens, UniProt Q9NYV4)",
    "remaining activity at 1 µM [%]": 59
  },
  {
    "structure-smiles": "Cc1cc(-c2cnc3c(NCc4nc5c(F)cccc5[nH]4)cc(N4CCOCC4)nn23)cs1",
    "test-system": "CDK12 (Homo sapiens, UniProt Q9NYV4)",
    "remaining activity at 1 µM [%]": 70
  },
  {
    "structure-smiles": "Cc1cc(-c2cnc3c(NCc4nc5c(C)ccnc5[nH]4)cc(N4CCOCC4)nn23)cs1",
    "test-system": "CDK12 (Homo sapiens, UniProt Q9NYV4)",
    "remaining activity at 1 µM [%]": 103
  },
  {
    "structure-smiles": "CC(C)n1cc(-c2cnc3c(NCc4nc5cccc(Cl)c5[nH]4)cc(N4CCOCC4)nn23)cn1",
    "test-system": "CDK12 (Homo sapiens, UniProt Q9NYV4)",
    "remaining activity at 1 µM [%]": 48
  },
  {
    "structure-smiles": "CC(C)n1cc(-c2cnc3c(NCc4nc5c(F)c(F)ccc5[nH]4)cc(N4CCOCC4)nn23)cn1",
    "test-system": "CDK12 (Homo sapiens, UniProt Q9NYV4)",
    "remaining activity at 1 µM [%]": 60
  },
  {
    "structure-smiles": "CN1CCN(c2cc(NCc3nc4c(F)c(F)ccc4[nH]3)c3ncc(-c4cnn(C5CC5)c4)n3n2)CC1",
    "test-system": "CDK12 (Homo sapiens, UniProt Q9NYV4)",
    "remaining activity at 1 µM [%]": 53
  },
  {
    "structure-smiles": "Fc1cccc2[nH]c(CNc3cc(N4CCOCC4)nn4c(-c5cnn(C(F)F)c5)cnc34)nc12",
    "test-system": "CDK12 (Homo sapiens, UniProt Q9NYV4)",
    "remaining activity at 1 µM [%]": 23
  },
  {
    "structure-smiles": "Cc1cc(-c2cnc3c(NCc4nc5cc(Cl)c(Cl)cc5[nH]4)cc(N4CCOCC4)nn23)cs1",
    "test-system": "CDK12 (Homo sapiens, UniProt Q9NYV4)",
    "remaining activity at 1 µM [%]": 82
  },
  {
    "structure-smiles": "CC(C)n1cc(-c2cnc3c(NCc4nc5cccc(Cl)c5[nH]4)cc(N4CCN(C)CC4)nn23)cn1",
    "test-system": "CDK12 (Homo sapiens, UniProt Q9NYV4)",
    "remaining activity at 1 µM [%]": 45
  },
  {
    "structure-smiles": "Cc1cc(-c2cnc3c(NCc4nc5c(F)c(F)ccc5[nH]4)cc(N4CCN(C)CC4)nn23)cs1",
    "test-system": "CDK12 (Homo sapiens, UniProt Q9NYV4)",
    "remaining activity at 1 µM [%]": 63
  },
  {
    "structure-smiles": "Clc1cccc2nc(CNc3cc(N4CCOCC4)nn4c(-c5cnn(C6CC6)c5)cnc34)[nH]c12",
    "test-system": "CDK12 (Homo sapiens, UniProt Q9NYV4)",
    "remaining activity at 1 µM [%]": 60
  },
  {
    "structure-smiles": "CC(C)n1cc(-c2cnc3c(NCc4nc5cc(Cl)c(Cl)cc5[nH]4)cc(N4CCOCC4)nn23)cn1",
    "test-system": "CDK12 (Homo sapiens, UniProt Q9NYV4)",
    "remaining activity at 1 µM [%]": 68
  },
  {
    "structure-smiles": "Cc1cc(-c2cnc3c(NCc4nc5c(F)c(F)ccc5[nH]4)cc(N4CCOCC4)nn23)cs1",
    "test-system": "CDK12 (Homo sapiens, UniProt Q9NYV4)",
    "remaining activity at 1 µM [%]": 79
  },
  {
    "structure-smiles": "Cc1ccnc2[nH]c(CNc3cc(N4CCN(C)CC4)nn4c(-c5cnn(C(C)C)c5)cnc34)nc12",
    "test-system": "CDK12 (Homo sapiens, UniProt Q9NYV4)",
    "remaining activity at 1 µM [%]": 30
  },
  {
    "structure-smiles": "Cc1cc(-c2cnc3c(NCc4nc5cccc(Cl)c5[nH]4)cc(N4CCN(C)CC4)nn23)cs1",
    "test-system": "CDK12 (Homo sapiens, UniProt Q9NYV4)",
    "remaining activity at 1 µM [%]": 61
  },
  {
    "structure-smiles": "Clc1cc2nc(CNc3cc(N4CCOCC4)nn4c(-c5cnn(C6CC6)c5)cnc34)[nH]c2cc1Cl",
    "test-system": "CDK12 (Homo sapiens, UniProt Q9NYV4)",
    "remaining activity at 1 µM [%]": 83
  }
]

This collection of values is drawn from patent US20260055114A1.
